Each entry below lists one item and its recorded GI50 value.
# System: RXF 393
# Assay Summary: NCI tumour cell line growth inhibition, 48 h
The source made the active and inactive calls. No stated cut-off is given here; in the data, active = GI50 up to about 1.1 µM and inactive = higher.
Reported Property: GI50

> print(dat)
                                   compound       value.reported
1  Cn1nc(-c2ccccc2)c2c(-c3ccccc3)c3cc(Cl)ccc3nc21  > 100 µM (inactive)
2  CCOC(=O)CCC(NC(=O)c1ccc(Nc2nc3ccccc3n3cccc23)cc1)C(=O)OCC (stereo not given)   12.2 µM (inactive)
3  O=C(NC(=O)c1ccccc1)OC(c1ccccc1)C1CO1 (stereo not given)  > 100 µM (inactive)
4  Cc1ccc(N(C)S(=O)(=O)c2ccccc2[N+](=O)[O-])cc1   34.9 µM (inactive)
5  O=C1NC2=NN=C(c3ccc(Br)cc3)CN2NC12c1ccccc1-c1ccccc12  > 100 µM (inactive)

----------
Below, each entry is listed with its recorded GI50.
# Tested on: KM12
# Assay Summary: NCI tumour cell line growth inhibition, 48 h
Activity calls are given as the source filed them. Cut-off read from the data, not from the text of the source: active = GI50 up to about 1.1 µM and inactive = higher.
Reported Property: GI50

> print(dat)
                                    compound       value.reported
 1  CC(=O)OC12CC(C(F)(F)F)(C(F)(F)F)OC1(OC(C)=O)CC(C(F)(F)F)(C(F)(F)F)O2 (stereo unspecified)   2.33 µM (inactive)
 2  O=c1c2cc(S(=O)(=O)Nc3c(Cl)cccc3Cl)ccc2ncn1NS(=O)(=O)c1ccc2ccccc2c1   15.2 µM (inactive)
 3          c1ccc2c(c1)cc1ccc3cccc4ccc2c1c34   26.2 µM (inactive)
 4  Cc1cc(C)cc(Nc2nnc3n2S(=O)(=O)c2cc(C)c(Cl)cc2S3)c1   8.38 µM (inactive)
 5  Nc1nc(Cl)c2ncn(CCCC(c3ccccc3)P(=O)(O)O)c2n1 (stereo unspecified)  > 100 µM (inactive)
 6  CCCCn1c(C)c(C(=O)OCC)c2cc(OCc3ccc(C(=O)Nn4c(C)ccc4C)cc3)c(Br)cc21  > 100 µM (inactive)
 7  CCCCCC#COC1CC(C)CC[C@@H]1C(C)C (stereo partly specified)   98.9 µM (inactive)
 8  O=C(O)C1C2C=CC(O2)C1C(=O)Nc1ncccn1 (stereo unspecified)  > 100 µM (inactive)
 9  CCOC(=O)/C(=C\NCC(OCC)OCC)c1nc2ccccc2[nH]1   32.1 µM (inactive)
10   CCN(CC)Cc1ccc(Nc2c3ccccc3nc3ccccc23)cc1   3.17 µM (inactive)
11  O=C1C2=C(C(c3ccccc3)=C1c1ccccc1)c1ccccc1C1(c3ccccc3)C2=C(O)C(c2ccccc2)=C1c1ccccc1 (stereo unspecified)  > 100 µM (inactive)
12            COc1ccc2c(n1)Sc1nc3ccccc3nc1N2   55.7 µM (inactive)
13                N#Cc1nc(/C=C/c2cccnc2)oc1N  > 100 µM (inactive)
14  CSCSCC(CO)NC(=O)/C(C)=C\c1c(C)[nH]c(=O)[nH]c1=O (stereo unspecified)    200 µM (inactive)
15  CCOC(=O)CCC(NC(=O)c1ccc(Nc2nc3ccccc3n3cccc23)cc1)C(=O)OCC (stereo unspecified)   31.1 µM (inactive)
16  CCCCc1c2c(nc3c1CCC/C3=C\c1ccccc1)C(=O)C(CN(C)C)CC2 (stereo unspecified)   16.9 µM (inactive)
17         O=C(CCl)Nc1ccc(-c2nc3ccccc3s2)cc1    3.3 µM (inactive)
18  CC1C(=O)C23OC[C@@]1(C)C1(O)CC[C@@H](C)[C@]21CC3=O (stereo partly specified)  > 100 µM (inactive)
19  NC(CC1=CS(=O)(=O)c2ccc(Cl)cc21)C(=O)O (stereo unspecified)  > 100 µM (inactive)
20  N#C[BH2-][n+]1cn(C2CC(O)C(COP(=O)(O)OC3CC(n4cnc5c(=O)[nH]c(N)nc54)OC3CO)O2)c2nc(N)[nH]c(=O)c21 (stereo unspecified)  > 100 µM (inactive)
21  O=C(O)c1cc(S(=O)(=O)N/N=C\c2c3ccccc3[n+]([O-])c3ccccc23)ccc1O   23.8 µM (inactive)

----------
# System: SNB-78
# Assay Summary: NCI tumour cell line growth inhibition, 48 h
The source made the active and inactive calls. Cut-off read from the data, not from the text of the source: active = GI50 up to about 1.1 µM and inactive = higher.
Labels: active, inactive

> print(dat)
                                   compound  tested.on  assigned.label
1  Cc1ccc(NC(=O)NC(=O)c2ccc([N+](=O)[O-])cc2[N+](=O)[O-])cc1Oc1ncc(Cl)cn1     SNB-78          active
2  COC(=O)C1CC2(CC3=C1CCCC3)OCCO2 (stereo not given)     SNB-78        inactive
3  O=C(Nc1ccccc1)N1C(c2ccccc2)=N[C@@H](c2ccccc2)[C@@H]1c1ccccc1     SNB-78        inactive
4  O=C(O)C12C3CCCC1C2CC3 (stereo not given)     SNB-78        inactive
5  O=c1cc2n(c(=O)[nH]1)C1OC(C(O)C1O)[C@@H]2CCO (stereo not given in full)     SNB-78        inactive

----------
Here, each record is paired with measured GI50 data.
# Tested on: SK-MEL-2
# Assay Summary: NCI tumour cell line growth inhibition, 48 h
Active and inactive are the calls of the source. Rule as the data show it: active = GI50 up to about 1.1 µM and inactive = higher.
Reported Property: GI50

> print(dat)
                                    compound        value.reported
 1  Cc1ccc(S(=O)(=O)N[C@@H](Cc2ccccc2)C(=O)CCl)cc1    12.9 µM (inactive)
 2  O=C(Cn1nnc(-c2ccccc2)n1)N/N=C/c1cn(Cc2ccc(Cl)cc2Cl)c2ccccc12   > 100 µM (inactive)
 3              N#CC1(N2CCCC2)CCC2(CC1)OCCO2   > 100 µM (inactive)
 4  O=C(CCCCCCCCC(=O)OCCCn1cc(C(=O)NC(=O)OCc2ccccc2)c(=O)[nH]c1=O)OCCCn1cc(C(=O)NC(=O)OCc2ccccc2)c(=O)[nH]c1=O   > 100 µM (inactive)
 5                     N#Cc1nc(-c2cccs2)oc1N   > 100 µM (inactive)
 6      Cc1ccc(-c2cn3c(nc4ccccc43)c(C)n2)cc1  > 43.4 µM (inactive)
 7  COc1ccc(C2=NN(C(C)=O)c3nc4ccccc4nc3O2)cc1    8.02 µM (inactive)
 8  COC(=O)C(CSSC[C@H](N/C(C)=C/C(C)=O)C(=O)OC)N/C(C)=C/C(C)=O (stereo partly specified)   > 100 µM (inactive)
 9              Nc1nc(Cl)cc(NCC2(CO)CCCC2)n1   > 100 µM (inactive)
10                N#Cc1nc(/C=C/c2cccnc2)oc1N   > 100 µM (inactive)
11  C[C@]12CC[C@H]3[C@@H](CCC4=CC(=O)C=C[C@@]43O)[C@@H]1CCC2=O    77.4 µM (inactive)
12  N#Cc1ccc(-n2c3ccccc3c3ccc4c(c32)C(=O)C=CC4=O)cc1    8.87 µM (inactive)
13  CCOC(=O)C1(C(=O)OCC)C[C@]23OCCC(=O)[C@H]2[C@H]2C(=O)OC(C)(C)O[C@]23C1   > 100 µM (inactive)
14  COC(=O)C1=C(C(=O)OC)C23CC4CCC2(C(=O)C1O3)C4(C)C (stereo unspecified)   > 100 µM (inactive)
15  CC(=O)OC12CC(C(F)(F)F)(C(F)(F)F)OC1(OC(C)=O)CC(C(F)(F)F)(C(F)(F)F)O2 (stereo unspecified)    5.75 µM (inactive)
16    O=C(/C=C/C=C/c1ccccc1)c1ccc2c(c1)CCCC2    83.2 µM (inactive)

----------
Catalogue of GI50 values
# System: ACHN
# Assay Summary: NCI tumour cell line growth inhibition, 48 h
Activity calls are given as the source filed them. Cut-off read from the data, not from the text of the source: active = GI50 up to about 1.1 µM and inactive = higher.

Compound	GI50
CCN(CC)C(=O)CCCCCCCCC1CO1 (stereo not given)	> 100 µM (inactive)
CC1(C)[C@H]2Cc3cc(-c4cc5c(cn4)[C@@H]4C[C@H]([C@@H]5[C@@H]5c6cc(-c7cc8c(cn7)[C@@H]7C[C@H](C8)C7(C)C)ncc6[C@@H]6C[C@H]5C6(C)C)C4(C)C)ncc3[C@@H]1C2	> 100 µM (inactive)
O=C1c2c(Br)sc(Br)c2[C@@H](Cl)[C@H]1Cl	19.2 µM (inactive)
Nc1nc(Cl)cc(NCC2(CO)CCCC2)n1	> 100 µM (inactive)
CCOC(=O)c1ccc(N2C(=O)/C(=C\OC)c3ccccc3C2=O)cc1	42.4 µM (inactive)
CN1CCN(c2cc3nc4cc(O)cc(O)c4c(O)c3cc2N)CC1	27.5 µM (inactive)
CCOC(=O)C1(C(=O)OCC)C[C@]23OCCC(=O)[C@H]2[C@H]2C(=O)OC(C)(C)O[C@]23C1	> 100 µM (inactive)
CCCCC1Cc2cc(OC)ccc2-c2nc3cc(OC)ccc3n21.CCCCC1Cc2cc(OC)ccc2-c2nc3ccc(OC)cc3n21 (stereo not given)	15.2 µM (inactive)
CCC(C#N)N(Cc1cccc(CN(C(C)=O)C(C#N)CC)c1)C(C)=O (stereo not given)	> 100 µM (inactive)
Cn1c2ccccc2c(=NNc2ccc(S(=O)(=O)N=C(N)N)cc2)c2ccccc21	4.55 µM (inactive)
O=C(O)c1cncc(C(=O)O)c1	> 100 µM (inactive)
Clc1nc(NC23CC4CC(CC(C4)C2)C3)nc(NC23CC4CC(CC(C4)C2)C3)n1	> 34.8 µM (inactive)
COc1ccc(Nc2nc(NNC(=O)Cc3ccccc3)nc(NNC(=O)c3ccncc3)n2)cc1	> 10 µM (inactive)
Cc1cccc2c(=O)c3cccc([C@H](C)C(=O)O)c3oc12	> 100 µM (inactive)
CC1=Nn2c(nnc2-c2ccc(N)cc2)NC(C)(C)C1	> 100 µM (inactive)
CN(C)c1nc(Oc2nc(N(C)C)nc(N(C)C)n2)nc(N(C)C)n1	> 100 µM (inactive)
COc1ccc(Nc2nc3cc(C(F)(F)F)ccc3nc2-c2ccccc2)cc1OC	30.6 µM (inactive)
N#Cc1nc(-c2cccc(-c3nc(C#N)c(N)o3)n2)oc1N	> 100 µM (inactive)
Cc1[nH]c2ncn(/N=C/c3ccccc3)c(=N)c2c1Cc1ccccc1	> 100 µM (inactive)
CC(C)(C)n1c(=O)n2n(c1=O)Cc1cccc3cccc(c13)C2	20.6 µM (inactive)
